Source: patent US11384054B2

Test: Solubility test of ivacaftor in solvents and acetone/water mixtures at 25° C.
Assay type: physicochemical
Settings: isopropanol, organic solvent or mixture, Isopropanol, 25° C., read-out: Solubility
Method: “Solvent” refers to a liquid substance capable of dissolving ivacaftor at about 50° C. to about 60° C. The term “anti-solvent” refers to a liquid substance which is not capable of dissolving ivacaftor at about 20° C. to about 30° C. […]
observation-type: solubility (µg/mL)
Your answer is read as µg/mL, so omit the unit and give the number.

Req: Which value of solubility has been reported for CC(C)(C)c1cc(C(C)(C)C)c(NC(=O)c2c[nH]c3ccccc3c2=O)cc1O in the records?
Resp: 2870
